For each of the binders below, state its DELFIA ELISA response (FU).
target.or.test.system: L2 (DV1-GV2), soluble leucine zipper γδ TCR heterodimer of a delta variable 1 chain and a gamma variable 2 … (human)
Sequence (chain, as listed by the source mutant, chain 1 of 2): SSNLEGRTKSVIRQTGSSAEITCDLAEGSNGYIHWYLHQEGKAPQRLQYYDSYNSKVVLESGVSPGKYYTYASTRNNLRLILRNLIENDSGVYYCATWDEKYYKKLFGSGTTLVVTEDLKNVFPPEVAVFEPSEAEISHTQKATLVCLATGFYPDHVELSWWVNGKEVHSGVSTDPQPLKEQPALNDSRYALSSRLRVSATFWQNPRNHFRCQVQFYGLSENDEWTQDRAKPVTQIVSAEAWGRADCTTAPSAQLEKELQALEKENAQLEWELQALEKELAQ
Sequence (chain, as listed by the source mutant, chain 2 of 2): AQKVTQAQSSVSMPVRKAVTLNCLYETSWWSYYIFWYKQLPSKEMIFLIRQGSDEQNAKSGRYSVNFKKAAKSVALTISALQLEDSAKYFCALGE
assay.info: DELFIA ELISA, coated antigen;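 further: binding of antibody supernatants or protein-A purified antibodies to plate-coated antigen (3 µg/ml recombinant TCR or BSA), 1 h incubation at room temperature, DELFIA readout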
Answer in FU, number only, no unit symbol.

Return reported DELFIA ELISA response (FU); argument: G4_1 (antibody, human IgG1, V domains shown, also called clone G4_1) VH: EVQLLESGGGVVQPGRPLRLSCAASGFTFSSYSMNWVRQAPGKGLEWVSSISSSSSYIYYADSVKGRFTISRDNSKNTLYLQMNSLRAEDTAVYYCAKGHWYFDLWGRGTLVTVSS VL: DIQMTQSPSSLSASVGDRVTITCQASQDISNYLNWYQQKPGKAPKLLIYDASNLETGVPSRFSGSGSGTDFTLTISSLQPEDFATYYCQQSYSTPVTFGPGTKVEIKR
100

Could you share which DELFIA ELISA response (FU) value was measured for G4_22 (antibody, human IgG1, V domains shown, also called clone G4_22) VH: QVQLVESGGGLVQPGGSLRLSCAASGFTFSTYAMSWVRQAPGKGLEWVSTVSGSGGTTYYADSVKGRFTISRDNSKNTLYLQMNSLRAEDTAVYYCAKDSTAVTDWFDPWGRGTLVTVSS VL: DIQMTQSPSSLSASVGDRVTITCQASQDISNYLNWYQQKPGKAPKLLIYAASSLQSGVPSRFSVSGSGTDFTLTISNLQPEDFATYYCQQSYSIPWTFGQGTKVEIKR ?
567

Please report the recorded DELFIA ELISA response (FU) for G4_16 (antibody, human IgG1, V domains shown, also called 1248_P02_D10; clone G4_16) VH: EVQLLESGAEVKKPGASVKVSCKASGYTFTSYGISWVRQAPGQGLEWMGWISAYNGNTNYAQKLQGRVTMTTDTSTSTAYMELRSLRSDDTAVYYCARDYGDFYGMDVWGQGTLVTVSS VL: SQSVLTQPPSASGSPGQSVTFSCTGTSSDIGAFNSVSWYQQHPGKAPKLLIYEITKRPSGVPDRFSGSKSGNTASLTISVLQAEDEADYYCTSYAGSNTLIFGGGTKVTVLG .
84

DELFIA ELISA response (FU) for G4_25 (antibody, human IgG1, V domains shown, also called clone G4_25) VH: EVQLVESGAEVKKPGSSVKVSCKASGGTFSSYAISWVRQAPGQGLEWMGGIIPIFGTANYAQKFQGRVTITADKSTSTAYMELSSLRSEDTAVYYCARSLRDGYNYIGSLGYWGQGTLVTVSS VL: SQSALTQPRSVSGSPGQSVTISCTGTSSDVGGYNYVSWYQQHPGKAPKLMIYEVSNRPSGVSNRFSGSKSGNTASLTISGLQAEDEADYYCSSYGSGSVFGTGTKLTVLG ?
486

FYI, the data here is from patent US20230090901A1.
